Data provenance is ChEMBL document CHEMBL2086238.

# assay: Oral bioavailability in BALB-C mouse
# Format: ADME, organism-based
# testParameters: in vivo
reportedEndpoint: bioavailability (%)
One number for each entry, in %.

// recorded bioavailability for "CS(=O)(=O)N1CCN(Cc2cn3cc(-c4cnc(N)nc4)nc(N4CCOCC4)c3n2)CC1" : 90

---

# measuredOn: PI3K p110 beta/p85 alpha (Homo sapiens, UniProt P42338)
# Sequence (P27986 whole entry): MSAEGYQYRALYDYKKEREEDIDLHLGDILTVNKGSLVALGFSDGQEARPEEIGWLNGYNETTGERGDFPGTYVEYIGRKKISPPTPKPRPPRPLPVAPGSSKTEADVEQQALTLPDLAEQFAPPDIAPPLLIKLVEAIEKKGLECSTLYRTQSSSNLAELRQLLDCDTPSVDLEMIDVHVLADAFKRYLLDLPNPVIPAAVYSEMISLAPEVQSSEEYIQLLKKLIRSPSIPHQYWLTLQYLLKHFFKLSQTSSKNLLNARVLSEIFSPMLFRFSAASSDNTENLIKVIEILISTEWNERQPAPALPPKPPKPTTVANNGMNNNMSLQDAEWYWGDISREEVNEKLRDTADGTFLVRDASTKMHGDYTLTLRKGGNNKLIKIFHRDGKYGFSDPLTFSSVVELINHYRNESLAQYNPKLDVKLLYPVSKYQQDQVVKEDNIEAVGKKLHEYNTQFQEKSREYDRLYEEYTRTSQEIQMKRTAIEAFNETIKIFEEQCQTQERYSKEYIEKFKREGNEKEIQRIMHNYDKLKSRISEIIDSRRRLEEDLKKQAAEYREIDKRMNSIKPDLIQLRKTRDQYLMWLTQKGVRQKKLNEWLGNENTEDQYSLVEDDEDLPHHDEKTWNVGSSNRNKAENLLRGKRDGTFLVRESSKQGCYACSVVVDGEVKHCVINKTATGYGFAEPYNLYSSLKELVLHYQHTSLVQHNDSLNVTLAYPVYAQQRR
# Sequence (P42338 whole entry): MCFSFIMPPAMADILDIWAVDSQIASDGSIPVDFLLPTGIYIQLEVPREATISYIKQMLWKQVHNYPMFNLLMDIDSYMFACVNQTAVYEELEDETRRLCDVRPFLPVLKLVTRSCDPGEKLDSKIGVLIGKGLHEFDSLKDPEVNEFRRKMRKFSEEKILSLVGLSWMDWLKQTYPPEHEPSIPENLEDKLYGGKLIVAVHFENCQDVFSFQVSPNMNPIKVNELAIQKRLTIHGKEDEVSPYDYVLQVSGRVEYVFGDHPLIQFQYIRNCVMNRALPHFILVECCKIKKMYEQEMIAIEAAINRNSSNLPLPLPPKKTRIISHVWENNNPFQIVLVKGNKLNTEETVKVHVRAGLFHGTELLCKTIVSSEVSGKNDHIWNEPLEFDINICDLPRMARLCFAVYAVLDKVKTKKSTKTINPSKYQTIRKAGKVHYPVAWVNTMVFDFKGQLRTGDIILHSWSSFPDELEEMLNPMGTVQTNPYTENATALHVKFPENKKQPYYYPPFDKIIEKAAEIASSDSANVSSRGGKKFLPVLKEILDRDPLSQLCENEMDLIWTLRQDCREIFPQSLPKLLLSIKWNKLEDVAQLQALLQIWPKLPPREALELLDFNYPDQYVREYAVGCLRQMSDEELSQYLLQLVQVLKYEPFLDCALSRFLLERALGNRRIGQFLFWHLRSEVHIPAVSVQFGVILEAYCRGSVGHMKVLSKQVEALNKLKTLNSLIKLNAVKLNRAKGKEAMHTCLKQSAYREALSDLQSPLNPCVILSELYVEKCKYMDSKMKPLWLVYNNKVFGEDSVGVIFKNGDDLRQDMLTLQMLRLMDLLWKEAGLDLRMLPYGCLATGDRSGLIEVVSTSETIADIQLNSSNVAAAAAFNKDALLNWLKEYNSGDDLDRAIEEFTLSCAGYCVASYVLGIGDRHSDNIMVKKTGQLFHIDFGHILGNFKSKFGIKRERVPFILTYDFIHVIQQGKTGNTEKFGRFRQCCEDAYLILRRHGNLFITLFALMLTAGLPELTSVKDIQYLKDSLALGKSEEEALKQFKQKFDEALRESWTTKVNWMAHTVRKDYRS
# assay: Inhibition of human PI3Kbeta (p110beta/p85alpha) by ADP accumulation based HTRF assay
# testParameters: read-out: Ki(app)
reportedEndpoint: Ki (nM)
Answers are plain numbers, in nM.

Some molecules with known Ki results, for comparison:
- molecule: "CS(=O)(=O)N1CCN(Cc2cn3c(Cl)c(-c4cnc(N)nc4)nc(N4CCOCC4)c3n2)CC1"
  reportedEndpoint: "Ki"
  resultNumber: 212
- molecule: "CS(=O)(=O)N1CCN(Cc2cn3cc(-c4cnc(N)nc4C(F)(F)F)nc(N4CCOCC4)c3n2)CC1"
  reportedEndpoint: "Ki"
  resultNumber: 79.8
- molecule: "C[C@H]1CN(Cc2cn3cc(-c4cnc(N)nc4)nc(N4CCOCC4)c3n2)CCN1S(C)(=O)=O"
  reportedEndpoint: "Ki"
  resultNumber: 319

// recorded Ki for "Cc1c(CN2CCN(S(C)(=O)=O)CC2)nc2c(N3CCOCC3)nc(-c3cnc(N)nc3)cn12" : 202
